- system_tested: D2-Dopaminergic Site (striatal membranes) (Rattus norvegicus, UniProt P61169)
- Sequence (P61169 whole entry): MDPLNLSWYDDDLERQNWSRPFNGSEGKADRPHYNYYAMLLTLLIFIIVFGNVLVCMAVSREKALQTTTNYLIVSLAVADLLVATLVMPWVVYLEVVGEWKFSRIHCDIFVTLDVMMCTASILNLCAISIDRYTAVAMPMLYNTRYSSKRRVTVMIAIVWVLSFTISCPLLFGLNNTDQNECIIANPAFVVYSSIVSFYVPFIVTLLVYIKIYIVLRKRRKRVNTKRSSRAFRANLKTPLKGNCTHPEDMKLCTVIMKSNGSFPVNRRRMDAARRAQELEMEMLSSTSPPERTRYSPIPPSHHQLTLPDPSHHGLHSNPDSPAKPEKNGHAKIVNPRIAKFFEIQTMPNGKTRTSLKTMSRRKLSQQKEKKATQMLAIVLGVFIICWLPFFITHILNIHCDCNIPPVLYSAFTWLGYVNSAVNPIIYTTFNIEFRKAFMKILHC
- test_details: 3H-Spiroperidol binding to striatal membranes (D2-dopaminergic site)
- measurement_parameters: 3H-spiroperidol 0.4 nM, 37° C., 10 min, pH 7.7
Structures can show the parent of a compound that is named as a salt.
quantity_kind: IC50 (nM)
Numeric answer only, unit nM assumed.

Request body: readout IC50, system D2-Dopaminergic Site (striatal membranes) (Rattus norvegicus, UniProt P61169), query O=C(CCCN1CCN(c2noc3cc(O)ccc23)CC1)c1ccc(F)cc1 [Example 3, hydrobromide] . Return the value. 240

FYI, the data here is from patent US5696113A.
